B1: glmS ribozyme (parent)
chain: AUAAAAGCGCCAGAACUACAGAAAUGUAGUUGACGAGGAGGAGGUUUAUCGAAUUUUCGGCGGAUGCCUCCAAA

# Variants of: B1
# run description: self-cleavage kobs at 10000 uM GlcN6P; higher = faster cleavage; RNA array
# run parameters: with glucosamine-6-phosphate
Fewer inactive variants are shown than the library holds.
measured quantity: self-cleavage kobs at 10000 uM GlcN6P (s⁻¹)
Field: numeric (s⁻¹). Do not append units.

Recorded results for 5 variants are shown here.
U30A U31C : 0.00423
U45G U57C : 7.89e-05
G41U G66A : 0.00299
G7A G9A A53G G60A U65A C67A : 0.000102
A12U G40A A53C : 0.00159

Now consider a different variant.
Problem: Return reported self-cleavage kobs at 10000 uM GlcN6P; argument: C67G C70U
Result: 0.000137
